Taken from patent US20230107642A1.

target system: K-Ras G12C (Homo sapiens, UniProt P01116, G12C)
Construct: This protein contained 188 amino acids in total, including an N-terminal 6-Histidine tag; made in house; host or cells: E. coli BL21
protocol: CAF assay (% CAF; method in Example 7, not in this part)
Assay type: binding
test conditions: 10 uM, 1 h; Table 3
measured quantity: % CAF @ 10 uM, 1h (%)

>  <molecule>
C=C(F)C(=O)N1CCN(c2nc(=O)n3c4c(c(-c5ccc(Cl)c(F)c5)c(Cl)cc24)SCC3)[C@@H](C)C1

>  <measured quantity>
% CAF @ 10 uM, 1h

>  <result units>
%

>  <reading>
6.7

$$$$
>  <molecule>
CN(C)C/C=C/C(=O)N1CCN(c2nc(=O)n3c4c(c(-c5ccc(F)cc5F)c(Cl)cc24)SCC3)C[C@H]1C#N

>  <measured quantity>
% CAF @ 10 uM, 1h

>  <result units>
%

>  <reading>
3.6

$$$$
>  <molecule>
C=CC(=O)N1CCN(c2nc(=O)n3c4c(c(-c5c(C)ccc6[nH]ncc56)c(Cl)cc24)SCC3)[C@@H](C)C1

>  <measured quantity>
% CAF @ 10 uM, 1h

>  <result units>
%

>  <reading>
37.2

$$$$

[A] C=CC(=O)N1CCN(c2nc(=O)n3c4c(c(-c5cc(C(F)F)ccc5F)c(Cl)cc24)SCC3)[C@@H](C)C1
[B] C=CC(=O)N1CCN(c2nc(=O)n3c4c(c(-c5cccc6ccncc56)c(Cl)cc24)SCC3)[C@@H](C)C1
Q: Returns: the label, A or B , whose recorded % CAF @ 10 uM, 1h is the lower number. Refer to your chosen entry by its label in the reply.
Ans: A
